The measurements presented in this section are drawn from patent US8080522B2.

- Test system: T lymphocyte (spleen cell)
- PROTOCOL TEXT: T lymphocyte proliferation stimulated by Con A (3H-TdR incorporation)
- Assay type: cell-based, mouse
- RECORDED CONDITIONS: Table 2-1; sample 100 μg/mL; versus Con A alone
- Excerpt: Sacrifice mouse by draining artery blood, remove spleen in sterile condition, and make it to spleen cell suspension. After red blood cell lysis, wash for 3 times, and stain with Trypan Blue to count the living cells. The amount of living cells should be more than 95%. […] Put the dried filter membrane into 1450-423 microBeta sample bag, add scintillation liquid, and measure radioactivity (cpm) in Perkin Elmer MicroBeta Trilux 1450 Scintillation Counter.
Where no end group is shown, it is not given here.
MEASUREMENT LABEL: Enhancement percentage

[[record]]
substance = "Ac-[Cys^17(mPEG5000-MAL)]Tα1 (Ac-SDAAVDTSSEITTKDLC(mPEG5000‑maleimide)EKKEVVEEAEN; UniProt P06454 2-29, looked up, variant K17C) [BMJB017]"
measurement_label = "Enhancement percentage"
result = "+24.4%"

[[record]]
substance = "Ac-SDAAVDTSSEITTKDLCEKKEVVEEAEN-OH [BMJBT005]"
measurement_label = "Enhancement percentage"
result = "+30.1%"

[[record]]
substance = "Ac-SDAAVDTSSEITTKDLKEKKEVVEEAENC-NH2 [BMJBT009]"
measurement_label = "Enhancement percentage"
result = "+56.6%"

[[record]]
substance = "Ac-SDAAVDTSSEITTKDLKEKKCVVEEAEN-OH [BMJBT006]"
measurement_label = "Enhancement percentage"
result = "+6.2%"

[[record]]
substance = "Ac-[Cys^16(mPEG5000-MAL)]Tα1 (Ac-SDAAVDTSSEITTKDC(mPEG5000‑maleimide)KEKKEVVEEAEN; UniProt P06454 2-29, looked up, variant L16C) [BMJB016]"
measurement_label = "Enhancement percentage"
result = "+53.5%"


Would you kindly look at the next entry?
Return reported Enhancement percentage. Input substance: Ac-SDAAVDTSSEITTKDLKEKKEVVEEAEN-OH [Tα1, reference compound] +6.6%

###

- PROTOCOL TEXT: Plasma concentration / pharmacokinetics in mouse (competitive ELISA)
- Assay type: in vivo
- RECORDED CONDITIONS: 300 μg per mouse, injected peritoneally, parameters in 24 h, n = 3
Where no end group is shown, it is not given here.
MEASUREMENT LABEL: AUC (ng·h/mL)
Numeric only. Scale: ng·h/mL

Below, 3 substances whose answers are already recorded.
[[record]]
substance = "Ac-[Cys^17(mPEG5000-MAL)]Tα1 (Ac-SDAAVDTSSEITTKDLC(mPEG5000‑maleimide)EKKEVVEEAEN; UniProt P06454 2-29, looked up, variant K17C) [BMJB017]"
recorded_number = 83500

[[record]]
substance = "Ac-SDAAVDTSSEITTKDLKEKKEVVEEAEN-OH [Tα1, reference compound]"
recorded_number = 9220

[[record]]
substance = "Ac-SDAAVDTSSEITTKDLCEKKEVVEEAEN-OH [BMJBT005]"
recorded_number = 6110


Return AUC for the following substance: Ac-[Cys^16(mPEG5000-MAL)]Tα1 (Ac-SDAAVDTSSEITTKDC(mPEG5000‑maleimide)KEKKEVVEEAEN; UniProt P06454 2-29, looked up, variant L16C) [BMJB016] 120000

Read off the recorded AUC for Ac-SDAACDTSSEITTKDLKEKKEVVEEAEN-OH [BMJBT001] 3090

Fill in reported AUC for this entry: Ac-CSDAAVDTSSEITTKDLKEKKEVVEEAEN-OH [BMJBT008] 1210

// Input: Ac-SDAAVDTSSEITTKDLKEKKEVVCEAEN-OH [BMJBT007] . Output its AUC only. 17900

Assign AUC to the following record: BMJB012: PEG modification of Tα1, listed after BMJBT001 in Tables 1-2 and 2-2 (SDAAVDTSSEITTKDLKEKKEVVEEAEN; not fully specified; ends and bridges not checked; also: PEG conjugate, site not given here; UniProt P06454 2-29, looked up) 8150

Check the records and state AUC for Ac-SDAAVDTSSEITTKDLKEKKEVVEEAENC-NH2 [BMJBT009] 2120

Supply recorded AUC for Ac-SDAAVDTSSEITTKDLKEKKCVVEEAEN-OH [BMJBT006] here. 12800

Tell us which AUC value is on record for BMJB015: PEG modification of Tα1, listed after BMJBT004 in Table 1-2 (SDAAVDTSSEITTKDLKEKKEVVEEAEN; ends and bridges not checked; also: PEG conjugate, site not given here; UniProt P06454 2-29, looked up) 106000

Return AUC for the following substance: Ac-SDAAVDTSSEITTKDCKEKKEVVEEAEN-OH [BMJBT004] 8760

Give a short answer stating reported AUC for BMJB020: PEG modification of Tα1 (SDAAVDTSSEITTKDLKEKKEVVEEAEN; ends and bridges not checked; also: PEG conjugate, site not given here; UniProt P06454 2-29, looked up) . 4080

For the substance Ac-SDAAVDTCSEITTKDLKEKKEVVEEAEN-OH [BMJBT002] , report AUC. 2440

Quote AUC reported for Ac-SDAAVDTSSECTTKDLKEKKEVVEEAEN-OH [BMJBT003] please. 8710
